ASSAYED SYSTEM: Nluc-H1R (Homo sapiens, UniProt P35367)
Sequence (P35367 2-487 limits assumed): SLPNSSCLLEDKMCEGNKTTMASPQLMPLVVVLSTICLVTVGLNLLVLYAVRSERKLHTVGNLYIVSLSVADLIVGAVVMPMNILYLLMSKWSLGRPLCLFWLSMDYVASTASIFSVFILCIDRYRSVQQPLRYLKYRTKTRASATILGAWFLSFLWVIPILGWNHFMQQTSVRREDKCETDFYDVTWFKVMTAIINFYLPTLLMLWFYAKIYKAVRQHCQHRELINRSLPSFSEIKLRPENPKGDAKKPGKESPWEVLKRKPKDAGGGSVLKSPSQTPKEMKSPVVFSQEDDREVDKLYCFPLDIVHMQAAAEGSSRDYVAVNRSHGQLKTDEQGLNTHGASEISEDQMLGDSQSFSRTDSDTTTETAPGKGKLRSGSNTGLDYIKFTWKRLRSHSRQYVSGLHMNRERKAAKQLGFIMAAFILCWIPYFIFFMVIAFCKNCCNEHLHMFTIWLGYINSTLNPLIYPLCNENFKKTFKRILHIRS
PROCEDURE TEXT: NanoBRET association kinetics in whole HEK293T cells
Format: binding
CONDITION CONTEXT: read-out: NanoBRET kinetics Tr (residence time)
Classify: satisfied when residence time is strictly less than 40 min; not satisfied when residence time is not.

compound="COc1ccc(CN(CCN(C)CCC(=O)N[C@@H](C)C(=O)N[C@@H](C)C(=O)N[C@@H](CO)C(=O)NCCNC(=O)CCCCCNC(=O)COc2ccc(/C=C/C3=[N+]4C(=Cc5ccc(-c6cccs6)n5[B-]4(F)F)C=C3)cc2)c2ccccn2)cc1 [Compound 11]" class_assignment=satisfied
compound="NC(=O)C[C@H](NC(=O)CNC(=O)CNC(=O)CCN1CCC(Oc2ccccc2Cc2ccccc2)CC1)C(=O)NCCNC(=O)CCCCCNC(=O)COc1ccc(/C=C/C2=[N+]3C(=Cc4ccc(-c5cccs5)n4[B-]3(F)F)C=C2)cc1 [Compound 24]" class_assignment=satisfied
compound="C[C@H](NC(=O)CCN1CCC(Oc2ccccc2Cc2ccccc2)CC1)C(=O)N[C@@H](C)C(=O)N[C@@H](C)C(=O)NCCNC(=O)CCCCCNC(=O)COc1ccc(/C=C/C2=[N+]3C(=Cc4ccc(-c5cccs5)n4[B-]3(F)F)C=C2)cc1 [Compound 23]" class_assignment="not satisfied"
compound="COc1ccc(CN(CCN(C)CCC(=O)NCCCC(=O)N[C@@H](C)C(=O)N[C@@H](C)C(=O)NCCNC(=O)CCCCCNC(=O)COc2ccc(/C=C/C3=[N+]4C(=Cc5ccc(-c6cccs6)n5[B-]4(F)F)C=C3)cc2)c2ccccn2)cc1 [Compound 12]" class_assignment=satisfied
compound="COc1ccc(CN(CCN(C)CCC(=O)N[C@@H](C)C(=O)N[C@@H](C)C(=O)NCCNC(=O)CCCCCNC(=O)COc2ccc(/C=C/C3=[N+]4C(=Cc5ccc(-c6cccs6)n5[B-]4(F)F)C=C3)cc2)c2ccccn2)cc1 [Compound 10]" class_assignment=satisfied

The values you see were collected from paper PMC5785503.
